# system_name: Collagenase 3 (Homo sapiens)
# assay_info: In vitro inhibition of matrix metalloprotease-13
observable: IC50 (µM)
All answers are understood in µM, so give the number only.

Below: 4 compounds and their reported IC50.
| compound | val |
| --- | --- |
| CCN(CC)CCOc1ccc(CC(C)(C(=O)NO)S(=O)(=O)c2ccc(OC)cc2)cc1 (stereo not given) | 0.015 |
| C#CCC(Cc1cccnc1)(C(=O)NO)S(=O)(=O)c1ccc(OC)cc1 (stereo not given) | 0.032 |
| CC(C)=CCC(CC=C(C)C)(C(=O)NO)S(=O)(=O)c1ccc(C)cc1 | 0.006 |
| CCN(CC)COc1ccc(CC(C)(C(=O)NO)S(=O)(=O)c2ccc(-c3ccco3)cc2)cc1 (stereo not given) | 0.002 |

Next compound, IC50 to be filled in.
[Q] // query IC50 value for entry COc1ccc(S(=O)(=O)C(C)(C/C=C/c2ccccc2)C(=O)NO)cc1 (stereo not given)
[A] 0.012
